pEC50 values for the compounds below.
Test system: TAZ nuclear translocation in SW1990 cells
Test: TAZ Nuclear Translocation Assay
Type: cell-based
Settings: Homo sapiens, 4 hours
Where a name gives a salt, the structure may show the parent alone.
// field semantics: pEC50 = negative decimal log of concentration (mol/L)

compound	pEC50
c1cc(-c2nc(N3CCC4(CC3)CCN(C3CCCC3)C4)c3ccncc3n2)ccn1 [Compound 106, formate]	6.52

Recorded pEC50 (compound CC1NCCC12CCN(c1nc(-c3ccncc3)nc3cnccc13)CC2 (centres unmarked) [Compound 166] ): 5.74

Record summary for c1ccc(CN2CCC3(CCN(c4nc(-c5ccncc5)nc5cnccc45)CC3)C2)cc1 [Compound 133] : reported pEC50 = 6.40

Entry COC[C@H]1CC2(CCN(c3nc(-c4ccncc4)nc4cnccc34)CC2)CN1 (single isomer, unassigned) [Example 221] — recorded pEC50 = 6.64

Value of measured pEC50 for the entry Cc1n[nH]cc1-c1nc(N2CCC3(CCN(CCCO)C3)CC2)c2ccncc2n1 [Compound 149] : 5.60

---

Biological target: Human LATS2 catalytic domain (Homo sapiens (Human), UniProt Q9NRM7)
Sequence (Q9NRM7 553-1088): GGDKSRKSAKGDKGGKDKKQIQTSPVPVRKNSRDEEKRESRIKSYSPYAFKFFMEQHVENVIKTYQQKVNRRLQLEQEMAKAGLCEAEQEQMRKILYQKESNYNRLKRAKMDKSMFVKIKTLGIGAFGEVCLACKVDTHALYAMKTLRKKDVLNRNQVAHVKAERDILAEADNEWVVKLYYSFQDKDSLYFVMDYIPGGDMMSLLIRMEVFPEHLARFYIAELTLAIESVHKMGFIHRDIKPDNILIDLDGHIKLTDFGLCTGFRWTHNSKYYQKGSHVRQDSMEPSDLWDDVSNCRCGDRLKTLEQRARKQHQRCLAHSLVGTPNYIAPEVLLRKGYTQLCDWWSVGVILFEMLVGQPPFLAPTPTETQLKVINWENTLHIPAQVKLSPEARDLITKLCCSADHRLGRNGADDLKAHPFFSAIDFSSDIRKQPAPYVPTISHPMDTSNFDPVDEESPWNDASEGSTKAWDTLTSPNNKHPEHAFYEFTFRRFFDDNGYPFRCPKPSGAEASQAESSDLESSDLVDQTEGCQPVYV
Sequence (Q7L9L4 whole entry partner, the tested form may be a part): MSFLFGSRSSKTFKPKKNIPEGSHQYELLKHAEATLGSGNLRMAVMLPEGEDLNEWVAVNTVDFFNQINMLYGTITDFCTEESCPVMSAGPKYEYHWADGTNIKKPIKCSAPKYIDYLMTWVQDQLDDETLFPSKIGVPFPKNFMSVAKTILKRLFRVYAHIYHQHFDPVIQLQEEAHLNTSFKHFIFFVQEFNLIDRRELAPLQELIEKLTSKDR
Experiment: LATS2 High ATP HTRF Assay
Assay type: biochemical
Conditions: no asterisk: LATS2 High ATP HTRF Assay, 5000 μM ATP, 0.05 nM LATS2
Below, each entry is listed alongside its reported log10 of Ki.
Please note: log10 values; quantity Ki; unit nM.

molecule	val
c1cc(-c2nc(N3CCC4(CC3)CCN([C@@H]3CCOC3)C4)c3ccncc3n2)ccn1 (single isomer, unassigned)	0.03
COc1cncc2nc(-c3ccncc3)nc(N3CCC4(CCN(CC5COC5)C4)CC3)c12	-1.47
COc1cnc(Cl)c2nc(-c3ccncc3)nc(N3CCC4(CCN(C)C4)CC3)c12	-1.70
OCC1CC2(CCN(c3nc(-c4ccncc4)nc4cnccc34)CC2)CN1 (centres unmarked)	-1.24
Clc1cncc2nc(-c3ccncc3)nc(N3CCC4(CCNC4)CC3)c12	0.74
CNC(=O)C1CC2(CCN(c3nc(-c4ccncc4)nc4cnccc34)CC2)CN1 (centres unmarked)	-0.19
N#Cc1[nH]ncc1-c1nc(N2CCC3(CCNC3)CC2)c2ccncc2n1	1.71

Now look at this one.
// "CN1CCC2(CCN(c3nc(-c4ccncc4)nc4cncc(OCC5COC5)c34)CC2)C1" : log10 of Ki value = -0.82

---

# reported Ki; entries follow
Target: Human LATS2 catalytic domain (Homo sapiens (Human))
Assay: LATS2 High ATP HTRF Assay
Format: biochemical
Conditions: no asterisk: LATS2 High ATP HTRF Assay, 5000 μM ATP, 0.05 nM LATS2
Return type: number; implicit unit nM.

compound	val
Cc1cnsc1-c1nc(N2CCC3(CCNC3)CC2)c2ccncc2n1 [Compound 244]	13

Ki of Cc1n[nH]cc1-c1nc(N2CCC3(CCNC3)CC2)c2ccnc(C)c2n1 [Compound 163] , assay on Human LATS2 catalytic domain (Homo sapiens (Human)), is 2.88

For the compound Cc1n[nH]cc1-c1nc(N2CCC3(CCN(C)C3)CC2)c2cc(CC(F)(F)F)ncc2n1 [Compound 194] , the measured Ki on Human LATS2 catalytic domain (Homo sapiens (Human)) was 0.12

Record C[C@H](O)CN1CCC2(CCN(c3nc(-c4ccncc4)nc4cnccc34)CC2)C1 (single isomer, unassigned) [Compound 115] has Human LATS2 catalytic domain (Homo sapiens (Human)) Ki equal to 0.13

Entry c1ccc(N2CCC3(CCN(c4nc(-c5ccncc5)nc5cnccc45)CC3)C2)cc1 [Compound 140] , Human LATS2 catalytic domain (Homo sapiens (Human)) data, Ki value: 88.4

Item O[C@@H]1CC[C@H]1N1CCC2(CCN(c3nc(-c4ccncc4)nc4cnccc34)CC2)C1 (single isomer, unassigned) [Compound 179] was tested on Human LATS2 catalytic domain (Homo sapiens (Human)); the reported Ki is 0.1

Field Ki (system: Human LATS2 catalytic domain (Homo sapiens (Human))) for entry CN1CCC2(CCN(c3nc(-c4ccncc4)nc4cncc(O)c34)CC2)C1 [Compound 259] = 1.6

Here c1ccc(Cc2cc3c(N4CCC5(CCNC5)CC4)nc(-c4ccncc4)nc3cn2)cc1 [Compound 157] was tested on Human LATS2 catalytic domain (Homo sapiens (Human)), and its Ki came to 0.067
